Below is a list of entries, each paired with its recorded abundance fitness value.
B1: Advillin, residues 785 to 819; numbered along this chain, O75366 (parent)
chain: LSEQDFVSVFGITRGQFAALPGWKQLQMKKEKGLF

Variants of: B1
EXPERIMENT_DESCRIPTION: abundance fitness (aPCA) (normalised: wild type 0, dead -1); higher = more abundant; growth selection in yeast, the domain comes from the species named
STATED_CONDITIONS: Homo sapiens
QUANTITY_KIND: abundance fitness

VARIANT_DESCRIPTOR	MEASURED_RESULT
K30I	-0.266
L20Y	-0.106
F17V	-0.396
K29G	-0.266
P21W	-0.617
